experimental-target: androgen receptor (rat ventral prostate cytosol) (Rattus norvegicus, UniProt P15207)
Construct: from tissue; host or cells: ventral prostate cytosol of castrated male Sprague Dawley or Wistar rats
Sequence (P15207 whole entry S389L): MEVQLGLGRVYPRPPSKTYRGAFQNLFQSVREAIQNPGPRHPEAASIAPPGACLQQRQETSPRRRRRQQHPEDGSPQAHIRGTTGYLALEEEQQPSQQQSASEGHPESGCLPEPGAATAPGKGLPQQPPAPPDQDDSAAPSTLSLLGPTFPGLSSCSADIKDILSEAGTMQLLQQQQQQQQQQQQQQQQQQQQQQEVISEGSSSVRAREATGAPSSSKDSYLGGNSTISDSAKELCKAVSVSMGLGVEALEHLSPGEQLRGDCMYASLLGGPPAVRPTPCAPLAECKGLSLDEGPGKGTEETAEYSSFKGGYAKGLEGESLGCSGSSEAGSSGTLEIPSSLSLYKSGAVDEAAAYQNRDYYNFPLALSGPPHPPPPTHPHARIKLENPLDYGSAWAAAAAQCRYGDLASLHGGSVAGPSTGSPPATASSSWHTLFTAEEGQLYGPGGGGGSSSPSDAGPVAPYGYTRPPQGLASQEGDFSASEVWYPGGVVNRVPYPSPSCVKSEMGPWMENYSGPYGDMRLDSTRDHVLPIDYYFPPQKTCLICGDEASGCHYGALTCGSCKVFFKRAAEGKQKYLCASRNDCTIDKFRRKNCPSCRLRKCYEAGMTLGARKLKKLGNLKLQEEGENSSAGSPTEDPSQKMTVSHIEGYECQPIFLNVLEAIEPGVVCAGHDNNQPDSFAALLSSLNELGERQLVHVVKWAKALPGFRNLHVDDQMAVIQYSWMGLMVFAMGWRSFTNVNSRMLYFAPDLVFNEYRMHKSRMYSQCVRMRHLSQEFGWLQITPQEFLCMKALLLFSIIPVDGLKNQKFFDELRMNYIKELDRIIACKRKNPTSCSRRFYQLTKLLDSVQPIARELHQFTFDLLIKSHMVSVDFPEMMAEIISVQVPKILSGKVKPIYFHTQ
assay-summary: Androgen Receptor Binding Using Rat Ventral Prostate Cytosol
assay-setup: Concentration 3000 nM; 3 µM
Our labelling divides records by % Inhibition, Androgen Receptor Binding (Rat Cytosol) into ranges: bin 0 = under 60%, bin 1 = from 60% up to 90%, bin 2 = 90% and over

Worked examples, 5 compounds total:
compound: CSCC(C)(O)c1cc2cc([N+](=O)[O-])c(C(F)(F)F)cc2[nH]1 (single isomer, unassigned) [Compound 144]
category: bin 1
--
compound: CCS(=O)(=O)CC(C)(O)c1cc2cc([N+](=O)[O-])c(C(F)(F)F)cc2[nH]1 (stereo not drawn) [Compound 143]
category: bin 0
--
compound: CC(O)(CS(C)(=O)=O)c1cc2cc([N+](=O)[O-])c(C(F)(F)F)cc2[nH]1 (stereo not drawn) [Compound 140]
category: bin 0
--
compound: CCS(=O)(=O)CC(C)(O)c1cc2cc([N+](=O)[O-])c(C(F)(F)F)cc2[nH]1 (stereo not drawn) [Compound 151]
category: bin 2
--
compound: CC(O)(CS(C)(=O)=O)c1cc2cc([N+](=O)[O-])c(C(F)(F)F)cc2[nH]1 (stereo not drawn) [Compound 148]
category: bin 2

Category of CSCC(C)(O)c1cc2cc([N+](=O)[O-])c(C(F)(F)F)cc2[nH]1 (single isomer, unassigned) [Compound 145] :
bin 0

Category of CCS(=O)(=O)C[C@](C)(O)c1cc2cc([N+](=O)[O-])c(C(F)(F)F)cc2[nH]1 [Compound 156] :
bin 1

Category of CCSCC(C)(O)c1cc2cc([N+](=O)[O-])c(C(F)(F)F)cc2[nH]1 (single isomer, unassigned) [Compound 150] :
bin 2

Category of CC(O)(CS(C)(=O)=O)c1cc2cc([N+](=O)[O-])c(C(F)(F)F)cc2[nH]1 (stereo not drawn) [Compound 147] :
bin 1

----------
Exercise: for every item that follows, state its recorded IC50.
experimental-target: androgen receptor LBD (Panvera) (Rattus norvegicus)
Construct: 5 pmol androgen receptor LBD (Panvera); purchased Panvera
Sequence (P15207 651-882 limits assumed): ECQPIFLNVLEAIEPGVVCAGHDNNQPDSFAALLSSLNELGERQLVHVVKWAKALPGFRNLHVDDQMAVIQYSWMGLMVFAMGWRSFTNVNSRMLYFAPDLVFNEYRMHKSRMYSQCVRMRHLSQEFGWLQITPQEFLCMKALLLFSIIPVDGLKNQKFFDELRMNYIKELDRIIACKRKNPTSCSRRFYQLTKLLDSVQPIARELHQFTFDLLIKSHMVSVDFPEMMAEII
assay-summary: Androgen Receptor Filtration Binding Assay (PANVERA)
assay-setup: [3H] R1881 tracer 0.5 nM; read-out: IC50 (nM), Androgen Receptor Binding (Panvera)
Answers are plain numbers, in nM.

Illustrative cases are given below, each with its answer.
compound: CC(O)(CSc1ccccc1Cl)c1cc2cc(Cl)c(C(F)(F)F)cc2[nH]1 (centres unmarked)
experimental-target: androgen receptor LBD (Panvera) (Rattus norvegicus)
measurement-units: nM
IC50: 180

compound: COC(=O)c1ccc2[nH]c(C(C)(O)CSC3CCCCC3)cc2c1 (centres unmarked)
experimental-target: androgen receptor LBD (Panvera) (Rattus norvegicus)
measurement-units: nM
IC50: 15000

compound: CC(O)(CSc1ccc(F)cc1)c1cc2cc(Cl)ccc2n1S(C)(=O)=O (centres unmarked)
experimental-target: androgen receptor LBD (Panvera) (Rattus norvegicus)
measurement-units: nM
IC50: 5750

compound: CC(O)(CSc1ccc(F)cc1)c1cc2ccccc2[nH]1 (centres unmarked)
experimental-target: androgen receptor LBD (Panvera) (Rattus norvegicus)
measurement-units: nM
IC50: 7000

compound: CC(O)(COC(=O)c1ccc(Cl)c(Cl)c1)c1cc2cc(C#N)c(C(F)(F)F)cc2[nH]1 (centres unmarked)
experimental-target: androgen receptor LBD (Panvera) (Rattus norvegicus)
measurement-units: nM
IC50: 3560

Batch request: IC50 per item, same order as input.
1. CC(O)(SC1CCCCC1)c1cc2cc(C#N)c(C(F)(F)F)cc2[nH]1 (racemic)
2. CC(O)(CSc1ccc(F)cc1)c1cc2cc(C#N)c(C(F)(F)F)cc2[nH]1 (centres unmarked)

1. 5150
2. 2600
